# Test system: Respiratory Syncytial Virus
# RUN_DESCRIPTION: microbe, parasite or virus in culture
# Assay type: cell-based
# CONDITION_SET: pEC50 (−log of EC50 when expressed in molar units), protection against RSV cytopathology
The label is true (1) for Activity below 7 and false (0) for Activity equal to or exceeding 7.

INSERT INTO results (compound, category_label) VALUES
  ('Cc1nc2c(nc1C)C(n1c(NCCCN3CCOCC3)nc3cc(CO)ccc31)CCC2 (centres unmarked) [Compound 336]', 'true (1)'),
  ('OCCCc1ccc(C(F)(F)F)cc1NCc1ccc2nc(NCCCN3CCOCC3)n(Cc3ncccc3O)c2c1 [Compound 216]', 'false (0)'),
  ('Cn1cnc2c(Cn3c(NCCCN4CCOCC4)nc4ccc(CNc5ccccc5CCN5CCOCC5)cc43)cccc21 [Compound 242]', 'false (0)'),
  ('Cc1nc2c(nc1C)C(n1c(NCCCN3CCOCC3)nc3cc(CNc4ccccc4C(N)=O)ccc31)CCC2 (centres unmarked) [Compound 340]', 'true (1)');

Does the reported Activity of the following compound sit strictly below 7? Cn1cnc2c(Cn3c(NCCCN4CCOCC4)nc4ccc(CNc5cc(Br)ccc5CCCO)cc43)cccc21 [Compound 232]
false (0)

====

# Tested on: Respiratory Syncytial Virus
# RUN_DESCRIPTION: microbe, parasite or virus in culture
# Assay type: cell-based
# CONDITION_SET: pEC50 (−log of EC50 when expressed in molar units), protection against RSV cytopathology
QUANTITY_MEASURED: Activity
Would you mind answering with just the numeric figure?

Reference set (4 entries):
INSERT INTO assay_data (compound, recorded_result) VALUES
  ('Cc1cccc(NCc2ccc3nc(NCCCN4CCOCC4)n(Cc4nc(C)c(C)nc4C)c3c2)c1', 7.1),
  ('Cc1ccc(CCCO)c(NCc2ccc3c(c2)nc(NCCCN2CCOCC2)n3Cc2cccc3c2ncn3C)c1', 5.8),
  ('Cc1nc(C)c(Cn2c(NCCCN3CCOCC3)nc3ccc(CNc4ccccc4CCCO)cc32)nc1C', 7.8),
  ('Cc1ccc(C)c(NCc2ccc3c(c2)nc(NCCCN2CCOCC2)n3C2CCCc3nc(C)c(C)nc32)c1 (stereo not shown)', 7.2);

Reported Activity, compound Cc1cccc(NCc2ccc3nc(NCCCN4CCOCC4)n(Cc4cccc5c4ncn5C)c3c2)c1CCO : ____
7.1

What measured Activity goes with COc1ccc(C)nc1Cn1c(NCCCN2CCOCC2)nc2ccc(CNc3ccc(C)cc3CO)cc21 ?
7.1

Find the recorded Activity belonging to Cc1nc(C)c(Cn2c(NCCCN3CCOCC3)nc3ccc(CNc4cc(Cl)cc(Cl)c4)cc32)nc1C and report it.
7

====

# Test system: Respiratory Syncytial Virus
# RUN_DESCRIPTION: microbe, parasite or virus in culture
# Type: cell-based
# CONDITION_SET: human respiratory syncytial virus, 168 h; RSV-infected HeLa cells, MTT readout seven days after infection; −log of EC50 in molar units
Labelling field: enter yes (1) if recorded EC50 is less than 0.01 µM. Enter no (0) if it equals or exceeds that cut-off.

Use these answered entries as a reference point.
INSERT INTO results (compound, target_under_test, category_label) VALUES
  ('Cc1cc(C)c2nc(N(CCN3CCOCC3)C3CCNCC3)n(Cc3nc(C)ccc3O)c2c1 [Compound 170]', 'Respiratory Syncytial Virus', 'no (0)'),
  ('CCn1ncc(Cc2ccc3nc(NCCCN4CCOCC4)n(Cc4nc(C)ccc4O)c3c2)c1NCCO [Compound 152]', 'Respiratory Syncytial Virus', 'yes (1)'),
  ('Cc1cc(C)c2nc(NCCCN3CCOCC3)n(Cc3nc(C)ccc3O)c2c1 [Compound 154]', 'Respiratory Syncytial Virus', 'no (0)'),
  ('Cc1cc(C)c2nc(NCCCN3CCOC(CC(N)=O)C3)n(Cc3nc(C)ccc3O)c2c1 (stereo not shown) [Compound 191]', 'Respiratory Syncytial Virus', 'no (0)');

Would you kindly verify if EC50 of Cc1cc(C)cc(N(CCN)Cc2ccc3nc(NCCCN4CCOCC4)n(Cc4nc(C)ccc4O)c3c2)c1 [Compound 66] is strictly less than 0.01 µM?
yes (1)

Please let me know if Cc1cc(C)cc(NCc2ccc3nc(NCCCN4CCOC(CCO)C4)n(Cc4nc(C)ccc4O)c3c2)c1 (stereo not shown) [Compound 181] shows EC50 below 0.01 µM.
yes (1)

Quick check: does Cc1cc(C)cc(NCc2ccc3nc(NCCCN4CC(C)OC(C)C4)n(Cc4nc(C)ccc4O)c3c2)c1 (stereo not shown) [Compound 172] have EC50 under 0.01 µM?
no (0)

hey, is EC50 for Cc1cc(C)c2nc(N(CC(C)N3CCOCC3)C3CCNCC3)n(Cc3nc(C)ccc3O)c2c1 (stereo not shown) [Compound 161] lower than 0.01 µM or not?
yes (1)

Does Cc1ccc(O)c(Cn2c(NCCCN3CCOCC3)nc3ccc(CNc4cc(S(C)(=O)=O)ccc4CCO)cc32)n1 [Compound 48] have EC50 strictly under 0.01 µM?
no (0)

State whether 0.01 µM exceeds EC50 recorded for Cc1cccc(NC(=O)c2ccc3c(c2)nc(NCCCN2CCOCC2)n3Cc2nc(C)ccc2O)c1 [Compound 158] .
no (0)

Check if EC50 falls below 0.01 µM for Cc1cccc(NC(=O)c2ccc3nc(NCCCN4CCOCC4)n(Cc4nc(C)ccc4O)c3c2)c1 [Compound 159] .
no (0)

Determine whether this compound shows EC50 lower than 0.01 µM (ties excluded): Cc1cc(C)cc(NC(=O)c2ccc3nc(NCCCN4CCOCC4)n(Cc4nc(C)ccc4O)c3c2)c1 [Compound 160]
no (0)

Lab note: confirm whether the reported EC50 for this compound is below 0.01 µM, equality not counting. compound: Cc1ccc(I)c(NCc2ccc3nc(NCCCN4CCOCC4)n(Cc4nc(C)ccc4O)c3c2)c1 [Compound 50]
no (0)

Take the compound Cc1cc(C)cc(NCc2ccc3c(c2)nc(NCCCN2CCCOCC2)n3Cc2nc(C)ccc2O)c1 [Compound 174] and say whether its EC50 is less than 0.01 µM.
yes (1)

Lab log: compare recorded EC50 with 0.01 µM; is it strictly lower for Cc1cc(C)cc(N(CCCC(=O)O)Cc2ccc3nc(NCCCN4CCOCC4)n(Cc4nc(C)ccc4O)c3c2)c1 [Compound 62] ?
yes (1)
